Assay: Plasma pharmacokinetics in the TQT study
Settings: human, in vivo, 480 mg, Geometric mean Cmax (90% CI), PK/QTc population, n = 28
Property measured: Cmax (ng/mL)
Give bare numbers, in ng/mL.

Request: Can you share its Cmax? I mean this molecule: `C=CC(=O)N1CCC([C@@H]2CCNc3c(C(N)=O)c(-c4ccc(Oc5ccccc5)cc4)nn32)CC1`
Response: 401

---

Assay: Plasma pharmacokinetics in the TQT study
Details: human, in vivo, 480 mg, mean t ½, 480-mg dose, range over part A and part B
Property measured: half-life

Request: Can you share its half-life? I mean this compound: C=CC(=O)N1CCC([C@@H]2CCNc3c(C(N)=O)c(-c4ccc(Oc5ccccc5)cc4)nn32)CC1 [Zanubrutinib]
Response: 8.1 to 11 h

---

Assay: Plasma pharmacokinetics in the TQT study
Settings: human, in vivo, 480 mg, median Tmax, range over part A and part B, 160 and 480 mg, postdose
Property measured: Tmax

Request: Can you share its Tmax? I mean this compound: `C=CC(=O)N1CCC([C@@H]2CCNc3c(C(N)=O)c(-c4ccc(Oc5ccccc5)cc4)nn32)CC1`
Response: 1.5 to 2.8 h
